Where these numbers come from: the supplement of paper PMC11208160

Assay: recombinant barcode read abundance after kanamycin selection (control-corrected) (log10(CPM+1)); higher = more efficient recombination; sequences stand for … in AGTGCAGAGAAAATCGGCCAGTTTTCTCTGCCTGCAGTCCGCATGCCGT…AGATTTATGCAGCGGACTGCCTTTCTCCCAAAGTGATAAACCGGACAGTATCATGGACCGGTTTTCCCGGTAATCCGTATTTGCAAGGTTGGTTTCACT; site = the 11-nt target
Metric: recombinant barcode read abundance (log10)
Answer with the value's number alone.

Biopolymer Sequence	Observed Result
TACGCTCCTTGGGTTCTAACCTGTTGCCT (site TACGCTCCTAC)	0
GCCCTATCTTGGGTTCTAACCTGTTGCCT (site GCCCGATCTAG)	0.0182
AGGTCTACTTGGGTTCTAACCTGTTGCAC (site AGGTCTACTGT)	0.521
ACCTGAACTTGGGTTCTAACCTGTTGCCT (site ACCTGAACTAG)	0.75
CCAGAAGCTTGGGTTCTAACCTGTTGCGT (site CCAGTAGCTCC)	0.434

Requested read-out: recombinant barcode read abundance (log10). Entry: GTCGTTGCTTGGGTTCTAACCTGTTGCCT (site CTCGTTGCTAG)
0.0407

Given the entry ACTAGCTCTTGGGTTCTAACCTGTTGCCT (site ACTTGCTCTAA) , report its measured recombinant barcode read abundance (log10).
0.0142

Entry AAGGTCACTTGGGTTCTAACCTGTTGCCT (site AAGGTCACTAG) has what recombinant barcode read abundance (log10)?
2.24

Param item = AGCGAAGCTTGGGTTCTAACCTGTTGCCT (site AGCGAAGCTAG) ; retrieve measured recombinant barcode read abundance (log10).
0.382

Dear colleague, I am looking for the recorded recombinant barcode read abundance (log10) of the following sequence: CAGACTTCTTGGGTTCTAACCTGTTGCCT (site CGGACTTCTAG)
0.039

---

Assay: recombinant UMI read abundance after kanamycin selection (control-corrected) (log10(CPM+1)); higher = more efficient recombination; extreme values may be limits of the assay; sequences stand for … in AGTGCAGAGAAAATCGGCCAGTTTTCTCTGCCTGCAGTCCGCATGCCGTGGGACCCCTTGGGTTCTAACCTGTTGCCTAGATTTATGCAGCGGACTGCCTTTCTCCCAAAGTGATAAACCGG…AGGTTGGTTTCACT; site = the 11-nt donor
Binary classification by recombinant UMI read abundance (log10), with 0.008 as an inclusive lower bound for y; all other cases are n.

These recorded examples may help you get a feel for the data.
Biopolymer Sequence	Assigned Class
ACAGAATCATGGACCGGTTTTCCCGGTAATCCGTATTTGCA (site ACAGCATCTTG)	y
TAGTTGGCATGGACCGGTTTTCCCGGTAATCCGTATTTGTG (site TACTTGGCTCA)	y
CGAATCGCATGGACCGGTTTTCCCGGTAATCCGTATTTGAT (site CGAATCGCTAT)	y

Pending sequence:
Is the recorded value of recombinant UMI read abundance (log10) equal to or greater than 0.008 for this sequence? CCCAAGCCATGGACCGGTTTTCCCGGTAATCCGTATTTGCC (site CCCGAGCCTGG)
n

---

Experiment: recombinant UMI read abundance after kanamycin selection (control-corrected) (log10(CPM+1)); higher = more efficient recombination; extreme values may be limits of the assay; sequences stand for … in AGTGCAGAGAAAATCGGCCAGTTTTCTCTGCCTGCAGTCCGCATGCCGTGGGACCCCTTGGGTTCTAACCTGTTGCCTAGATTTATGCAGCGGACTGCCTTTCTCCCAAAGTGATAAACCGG…AGGTTGGTTTCACT; site = the 11-nt donor
Metric: recombinant UMI read abundance (log10)

Here's what some known entries look like.
Biopolymer Sequence	Metric	Observed Result
TAGCCAGCATGGACCGGTTTTCCCGGTAATCCGTATTTGAA (site TAGCCAGCTTT)	recombinant UMI read abundance (log10)	0.924
CCTCCAACATGGACCGGTTTTCCCGGTAATCCGTATTTGTA (site CCTCCAACTTA)	recombinant UMI read abundance (log10)	0.0158
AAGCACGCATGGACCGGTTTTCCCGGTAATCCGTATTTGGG (site AAGCTCGCTCC)	recombinant UMI read abundance (log10)	0.0309
GGCAGTCCATGGACCGGTTTTCCCGGTAATCCGTATTTGGG (site GGCAGTCCTCC)	recombinant UMI read abundance (log10)	0.00418
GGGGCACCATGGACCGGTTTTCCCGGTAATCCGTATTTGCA (site GGGGCACCTTA)	recombinant UMI read abundance (log10)	0.011

Now take the following sequence into account.
Field request: recombinant UMI read abundance (log10) | item: GAATGGACATGGACCGGTTTTCCCGGTAATCCGTATTTGAC (site GAATGGACTGT)
2.81

---

Attribute: recombinant barcode read abundance (log10)
Assay: recombinant barcode read abundance after kanamycin selection (control-corrected) (log10(CPM+1)); higher = more efficient recombination; sequences stand for … in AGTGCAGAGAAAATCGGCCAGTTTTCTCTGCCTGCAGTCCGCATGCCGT…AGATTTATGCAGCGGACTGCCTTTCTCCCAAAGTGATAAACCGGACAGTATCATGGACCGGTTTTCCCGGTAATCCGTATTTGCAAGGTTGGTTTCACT; site = the 11-nt target

Record excerpt, results attached:
Biopolymer Sequence	Observed Result
TAGAACACTTGGGTTCTAACCTGTTGCCT (site CAGAACACTAG)	0.256
ACCCAAACTTGGGTTCTAACCTGTTGCCT (site ACCCAACCTAG)	0.0677
AGGCTGCCTTGGGTTCTAACCTGTTGCCT (site AGGCTGGCTAG)	0.0502
AACTGGGCTTGGGTTCTAACCTGTTGCCT (site ACCTGGGCTAG)	0.149
CCTAACACTTGGGTTCTAACCTGTTGCCT (site TCTAACACTAG)	0.114

Recorded recombinant barcode read abundance (log10) for TCCGAGACTTGGGTTCTAACCTGTTGCCT (site TCCGAGACTGG) , please?
0.267

What does the record list as recombinant barcode read abundance (log10) for CCGCCTCCTTGGGTTCTAACCTGTTGCAT (site CGTCCTCCTAT) ?
0.26

Please report the recorded recombinant barcode read abundance (log10) for GCGACTCCTTGGGTTCTAACCTGTTGCTA (site GAGACTCCTTA) .
0.739

Would you kindly share the measured recombinant barcode read abundance (log10) for CGACGAACTTGGGTTCTAACCTGTTGCCT (site CGACGAACTAG) ?
0.201

Which recombinant barcode read abundance (log10) is reported for this sequence? ACGATTCCTTGGGTTCTAACCTGTTGCCT (site AAGATTCCTAG)
0.132

---

Assay: recombinant barcode read abundance after kanamycin selection (control-corrected) (log10(CPM+1)); higher = more efficient recombination; sequences stand for … in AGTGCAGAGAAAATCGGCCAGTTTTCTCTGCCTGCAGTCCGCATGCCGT…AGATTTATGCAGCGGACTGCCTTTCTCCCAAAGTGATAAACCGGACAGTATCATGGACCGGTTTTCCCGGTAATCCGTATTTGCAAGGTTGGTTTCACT; site = the 11-nt target
Metric: recombinant barcode read abundance (log10)

# example entries with known answers
Biopolymer Sequence	Observed Result
GTCTAATCTTGGGTTCTAACCTGTTGCCT (site GTCTTATCTAG)	0.0315
ATCCTACCTTGGGTTCTAACCTGTTGCTT (site ATCGTACCTCA)	0.113
ATATGAGCTTGGGTTCTAACCTGTTGCCA (site ATATGAGCTTG)	0.884
TTATGATCTTGGGTTCTAACCTGTTGCCT (site TCATGAACTAG)	0.0371

So what does the record say about recombinant barcode read abundance (log10) for CTAGTAGCTTGGGTTCTAACCTGTTGCCG (site CTATTAGCTCG) ?
0.277

Which recombinant barcode read abundance (log10) reading was recorded for the sequence GTAAGCACTTGGGTTCTAACCTGTTGCTT (site GTAAGTACTAA) ?
0.242

// recombinant barcode read abundance (log10) lookup, key: GCAGGGACTTGGGTTCTAACCTGTTGCCT (site GCAGGGACTAG)
1.9

---

// values below are reported recombinant UMI read abundance (log10)
Assay: recombinant UMI read abundance after kanamycin selection (control-corrected) (log10(CPM+1)); higher = more efficient recombination; extreme values may be limits of the assay; sequences stand for … in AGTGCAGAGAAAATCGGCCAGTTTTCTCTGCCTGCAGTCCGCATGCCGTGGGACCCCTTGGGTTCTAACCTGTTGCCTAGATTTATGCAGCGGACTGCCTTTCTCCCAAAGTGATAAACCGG…AGGTTGGTTTCACT; site = the 11-nt donor
Number, no unit, nothing else.

Below, 3 sequences whose answers are already recorded.
Biopolymer Sequence	recombinant UMI read abundance (log10)
ACTAGTGCATGGACCGGTTTTCCCGGTAATCCGTATTTGCC (site ACTAGTGCTGG)	1.93
ATTCGCCCATGGACCGGTTTTCCCGGTAATCCGTATTTGAA (site ATTCGCCCTTT)	0.156
GGTGCGTCATGGACCGGTTTTCCCGGTAATCCGTATTTGTT (site GGTACGTCTAA)	0.0157

Suppose we examine the sequence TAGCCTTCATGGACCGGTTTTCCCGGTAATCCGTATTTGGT (site TAGCGTTCTAC) ; what recombinant UMI read abundance (log10) value has been reported?
0

Requested field: recombinant UMI read abundance (log10). Item: CGAATGGCATGGACCGGTTTTCCCGGTAATCCGTATTTGCG (site GAGGGCACTAT)
0.0326

Bench note: what recombinant UMI read abundance (log10) did TAAAATACATGGACCGGTTTTCCCGGTAATCCGTATTTGCA (site TACAATACTTG) show?
0.953

Look up recombinant UMI read abundance (log10) for this sequence: CTAGTAACATGGACCGGTTTTCCCGGTAATCCGTATTTGAG (site CTAGTATCTGT)
0

Please report the recorded recombinant UMI read abundance (log10) for GCTACTGCATGGACCGGTTTTCCCGGTAATCCGTATTTGAC (site GCTACTGCTGT) .
2.07

Give its recombinant UMI read abundance (log10) value. Item: AGATCGACATGGACCGGTTTTCCCGGTAATCCGTATTTGTT (site AGATCGACTAA)
0.688

Query (sequence): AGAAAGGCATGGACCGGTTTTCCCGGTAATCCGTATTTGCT (site AGTAAGGCTAG) ; field requested: recombinant UMI read abundance (log10)
1.3

Please give the measured recombinant UMI read abundance (log10) for this sequence: TGTGGTCCATGGACCGGTTTTCCCGGTAATCCGTATTTGTC (site TGTGGTCCTGA)
0

Look up recombinant UMI read abundance (log10): ATGTTCACATGGACCGGTTTTCCCGGTAATCCGTATTTGGT (site ATGTTCACTAC)
1.66

Can you share its recombinant UMI read abundance (log10)? I mean this sequence: TCGAGCGCATGGACCGGTTTTCCCGGTAATCCGTATTTGCT (site TCGAGCGCTAG)
1.5
